System: OVCAR-4 ovarian
assay summary: NCI tumour cell line growth inhibition, 48 h
Recorded TGI values for a group of compounds are listed next.

Write down the reported TGI of C=C(C)CC1=C(OCC)C(OC)(OCC)C1=O (stereo unspecified) , test system: OVCAR-4 ovarian.
> 100 µM

Then this compound: Nc1nc(Nc2ccccc2)sc1C(=O)c1ccc(Cl)cc1
3.01 µM

Then this compound: CC(=O)OCc1cc(OC(C)=O)cnc1COC(C)=O
> 100 µM

Then this compound: COC(=O)c1ccc(N=NN(C)COc2ccc(C#N)cc2)cc1
> 100 µM

Then this compound: OCC1NCC(O)C(O)C1O (stereo unspecified)
> 100 µM

Then this compound: O=S(=O)(O)c1cccc2c(N=Nc3c(O)ccc4ccccc34)cccc12
> 100 µM

* * *

Test system: ACHN renal
// allowed return values: Y for active, N for inactive

Example cases with answers are listed next.
compound	assigned label
CCOC(=O)c1c(-c2ccccc2)[n+](=O)c2ccc(Cl)cc2n1[O-]	N
CCCc1cc2cc(-n3nc(C)c4c3CC(C)(C)CC4=O)cc(NC3CCC(O)CC3)c2c(=O)[nH]1 (stereo unspecified)	Y
Cc1c2c(nn1C(=O)c1nn(-c3ccc(Cl)cc3)cc1O)-c1ccccc1CC2	Y
COc1ccc(/C=C2\CN(Cc3cn(CCCNc4ccnc5cc(Cl)ccc45)nn3)C/C(=C\c3ccc(OC)c(OC)c3)C2=O)cc1OC	N
Cc1cc(N2CCCCCC2)nc(NC2CCCC(Nc3ccnc4cc(Cl)ccc34)C2)n1 (stereo unspecified)	N

Fill in: this test's call for Cn1ncc2c(/N=C/c3cccs3)[nH]c(=S)nc21 is ___
N

Then this compound: O=C1/C(=C\C(Cl)=C/c2ccc([N+](=O)[O-])cc2)SC(=S)N1CCc1ccc(O)cc1
Y

Then this compound: CN(C)CCCN(c1nc(C(Cl)(Cl)Cl)ns1)c1nc(C(Cl)(Cl)Cl)ns1
N

Then this compound: ClCc1ccc(-c2ccc(Cn3cnc4c(Cl)nc(Cl)nc43)cc2)cc1
N

* * *

Test system: SN12C renal
assay summary: NCI tumour cell line growth inhibition, 48 h
value kind: TGI

For orientation, consider the following solved cases.
molecule	TGI
O=C1C(=O)c2ccccc2-c2ccccc21	3.29 µM
Nc1ncnc(NC2C=C(CO)C(O)C2O)c1[N+](=O)[O-] (stereo unspecified)	> 100 µM
CCCCCC(O)[C@H]1C(=O)C[C@@H](O[Si](C)(C)C(C)(C)C)[C@@H]1/C=C/CCOCc1ccccc1 (stereo partly specified)	38.4 µM

Looking for the measured TGI of C#CCN=C(N/N=C/c1ccc([N+](=O)[O-])o1)NS(=O)(=O)c1cc(C)c(Cl)cc1SCC(N)=O , can you help?
29.4 µM

Then this molecule: CC(C)[Si](OC1=C(C(=O)Nc2ccccc2Cl)CCCCC1)(C(C)C)C(C)C
> 100 µM

Then this molecule: Cn1cccc1-c1cc(-c2cccs2)[nH]c(=O)c1C#N
> 100 µM

Then this molecule: S=c1nc2[nH]ncc2c(N/N=C/c2ccccc2)[nH]1
> 100 µM

Then this molecule: NCC#CCNCCCN1CC1
> 100 µM

Then this molecule: CCCc1cc2cc(-n3nc(C)c4c3CC(C)(C)CC4=O)cc(NC3CCC(O)CC3)c2c(=O)[nH]1 (stereo unspecified)
> 100 µM

Then this molecule: Cn1c(=O)c2c(no[n+]2[O-])n(C)c1=O
> 100 µM

Then this molecule: CN=C1Nc2ccc(Cl)cc2C(c2ccccc2)=NN1C
> 100 µM

* * *

Recorded TGI values for a group of compounds are listed next.
Test system: SW-620 colon
assay summary: NCI tumour cell line growth inhibition, 48 h

compound	value kind	test value
C/C(CC(=O)NNc1ccc([N+](=O)[O-])cc1)=N\Nc1ccc([N+](=O)[O-])cc1	TGI	> 100 µM
O=C1OCC2(CO1)CC1C=CC2C1 (stereo unspecified)	TGI	> 100 µM

Looking for the measured TGI of O=C(CCN1CC2CCC(CC2)C1)c1cccs1 , can you help?
12.2 µM

Then this compound: N=C1N(c2ccccc2)C(=O)C23CCCC2C13N1CCOCC1 (stereo unspecified)
> 100 µM

Then this compound: O=S(=O)(O)c1cccc2c(N=Nc3c(O)ccc4ccccc34)cccc12
> 100 µM

Then this compound: N/C(=N\N=C\c1cccs1)NO
> 100 µM

* * *

Tested on: SNB-19 CNS
assay summary: NCI tumour cell line growth inhibition, 48 h
value kind: TGI

molecule	TGI
O=C(O)C1(C(=O)O)CC1(C(=O)O)C(=O)O	> 100 µM
COc1cccc2c(NNc3ccccc3)c3ccc([N+](=O)[O-])cc3nc12	> 100 µM
C/C=C/C=N/N(C(=O)c1cc([N+](=O)[O-])cc([N+](=O)[O-])c1)C1=NC(c2ccccc2)C(c2ccccc2)=NN1 (stereo not given)	> 100 µM
O=c1cc(-c2ccc(Cl)cc2)[nH]c2ncccc12	> 100 µM
N#CC(c1ccccc1)N1CCCN(C(C#N)c2ccccc2)C1c1ccccc1O (stereo not given)	> 100 µM

Looking for the measured TGI of Cc1oc2c(C)c(O)c3c(c2c1C1(C)OCCO1)C(=O)C=C(Cl)C3=O , can you help?
> 100 µM

Then this molecule: O=CN1CCN(C(=O)c2cc(Cl)cc(Cl)c2)C1=S
35 µM

* * *

System: CAKI-1 renal
assay summary: NCI tumour cell line growth inhibition, 48 h
Recorded TGI values for a group of molecules are listed next.

For orientation, consider the following solved cases.
molecule	TGI
O=C1OCc2c1cc(F)cc2[N+](=O)[O-]	> 100 µM
COc1ccc(C(=O)N2CCc3c([nH]c4ccccc34)C2C(=O)O)o1 (centres undefined)	> 10 µM
C=C1C[C@@H](O)[C@@H](Br)C(C)(C)[C@]12CCC(C)(Cl)C(Br)C2 (some centres undefined)	> 90.4 µM

Next up:
Looking for the measured TGI of NNC(=O)c1ccccc1Nc1ccccc1C(=O)NN , can you help?
> 100 µM

* * *

System: OVCAR-3 ovarian
value kind: GI50

For orientation, consider the following solved cases.
item smiles	target entity	GI50
NC1=C(Cl)C(=O)c2ccc(S(N)(=O)=O)cc2C1=O	OVCAR-3 ovarian	0.198 µM
CCCCCCCC/C=C/CCCCCCCC1=NC(C)(C)CN1C(C)C	OVCAR-3 ovarian	1.27 µM
CC(=O)O[C@H]1C(=O)O[C@@H]2C[C@H]3C(C)=CC(=O)[C@@H](O)[C@]3(C)[C@H]3[C@@]4(O)OC[C@]32[C@@H]1[C@@H](C)[C@H]4O	OVCAR-3 ovarian	0.0134 µM
CN1CCC[C@@H]1CCO[C@](C)(c1ccccc1)c1ccc(Cl)cc1	OVCAR-3 ovarian	7.96 µM

Looking for the measured GI50 of Clc1cc(Cl)c(Cl)c(-c2nc(-c3cccnc3)cs2)c1 , can you help?
16.2 µM

* * *

Test system: SK-MEL-2 melanoma
assay summary: NCI tumour cell line growth inhibition, 48 h
Recorded TGI values for a group of compounds are listed next.

compound	value kind	test value
C[C@]12CCC(=O)C=C1CC[C@@H]1[C@@H]2[C@@H](O)C[C@@]2(C)[C@H]1CC[C@]2(O)C(=O)CO	TGI	> 100 µM
Nc1nc(Nc2ccccc2)sc1C(=O)c1ccc(Cl)cc1	TGI	> 100 µM
COC(=O)C(=O)C(C(=O)C(=O)Nc1ccc(Cl)cc1C)c1nc2ccc(C(=O)c3ccccc3)cc2[nH]c1=O (stereo not given)	TGI	> 100 µM
CCOC(=O)c1sc2nc(SC)nc3c2c1N=CN3c1ccccc1Cl	TGI	> 100 µM
CN[C@]12CC3(C=CC(=O)C=C3)O[C@@]1(Cc1ccc(OC)cc1)N(C)C(=O)N2	TGI	10.9 µM
Clc1cc(Cl)c(Cl)c(-c2nc(-c3cccnc3)cs2)c1	TGI	81.9 µM
COc1cc(C#N)cc(OC)c1OCCOCCOc1c(OC)cc(C#N)cc1OC	TGI	> 100 µM
C/C(=N\NC(=O)c1cccnc1)c1cccc(/C(C)=N/NC(=O)c2cccnc2)n1	TGI	7.02 µM
CC1=C2C(=O)OCC23C=COC3(C)O1 (stereo not given)	TGI	> 100 µM

Next up:
Looking for the measured TGI of COC(=O)C1C(O)CCC2CN3CCc4c([nH]c5cccc(OC)c45)C3CC21 (stereo not given) , can you help?
> 100 µM

* * *

Test system: SNB-19 CNS
assay summary: NCI tumour cell line growth inhibition, 48 h
value kind: TGI

Looking for the measured TGI of C#CCOCn1cnc2c(=S)nc[nH]c21 , can you help?
> 100 µM

Then this compound: CCOC(=O)C(NC(=O)c1ccccc1)(Nc1ccc(S(=O)(=O)Nc2nc(C)cc(C)n2)cc1)C(F)(F)F (stereo not drawn)
> 100 µM

Then this compound: Cc1ccc(OCC2OC(C#N)C(Oc3ccc(C)cc3)C2Oc2ccc(C)cc2)cc1 (stereo not drawn)
> 100 µM

Then this compound: COc1c2c(cc3c1C(O)N1CC[C@]34[C@H]3O[C@H]3[C@H](OC)C[C@@H]14)OCO2 (stereo partly drawn)
> 100 µM
